Molecular target: human delta-like ligand 3 (DLL3) on SHP77 cells (human) (UniProt Q9NYJ7)
Sequence (Q9NYJ7 27-618, stated change not applied): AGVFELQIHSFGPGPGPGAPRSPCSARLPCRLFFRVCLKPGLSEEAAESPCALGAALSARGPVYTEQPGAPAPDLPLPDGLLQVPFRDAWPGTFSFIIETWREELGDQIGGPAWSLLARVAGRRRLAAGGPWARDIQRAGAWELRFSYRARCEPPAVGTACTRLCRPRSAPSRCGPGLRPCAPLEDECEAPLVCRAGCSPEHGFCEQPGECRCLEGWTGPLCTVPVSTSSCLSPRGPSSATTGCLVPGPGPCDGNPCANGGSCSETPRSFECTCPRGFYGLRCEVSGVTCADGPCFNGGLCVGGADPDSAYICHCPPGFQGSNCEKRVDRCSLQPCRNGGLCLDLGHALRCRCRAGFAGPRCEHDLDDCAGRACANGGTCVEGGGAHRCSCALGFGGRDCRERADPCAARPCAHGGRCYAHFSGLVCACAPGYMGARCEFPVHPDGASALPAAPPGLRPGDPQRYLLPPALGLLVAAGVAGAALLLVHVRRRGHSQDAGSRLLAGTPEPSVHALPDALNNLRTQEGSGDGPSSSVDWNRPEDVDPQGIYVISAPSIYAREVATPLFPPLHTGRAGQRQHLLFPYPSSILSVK
Assay: FACS on SHP77 cells
Quantity: MFI at 0.0064 nM (MFI)
Your answer is read as MFI, so omit the unit and give the number.

Query: Quick check: MFI at 0.0064 nM of Hab009VL2aVH1-hFc (scFv, part only; not given: VL-VH linker and human IgG1 Fc, V domains shown, not shown: another chain or arm of the molecule; a dimerising Fc or GST; small tags and cut ends) VL: DIVMTQSPLSLPVTPGEPASISCRASQTISDYLHWYLQKPGQSPRLLIKYASQSISGVPDRFSGSGSGTDFTLKISRVEAEDVGVYYCQQGHSFPLTFGQGTKLEIK VH: EVQLVQSGAEVKKPGASVKVSCKASGYTFTSYWMHWVRQAPGQRLEWMGTIYPGNSDTRYNQKFKDRVTITADTSASTAYMELSSLRSEDTAVYYCTRSYDYGDLDYWGQGTTVTVSS ?
Response: 128

Query: Quick check: MFI at 0.0064 nM of Hab006VL1VH4-hFc (scFv, part only; not given: VL-VH linker and human IgG1 Fc, V domains shown, not shown: another chain or arm of the molecule; a dimerising Fc or GST; small tags and cut ends) VL: DIQMTQSPSSLSASVGDRVTITCRATKSISKYLAWYQQKPGKAPKLLIFSGSTLQSGVPSRFSGSGSGTDFTLTISSLQPEDFATYYCQQHHEYPYTFGGGTKVEIK VH: EVQLVQSGAEVKKPGASVKVSCKASGYTFTSYWMHWVRQAPGQRLEWMGVIDPSDSLANYNQEFKGRVTLTVDTSSSTAYMELSSLRSEDTAVYYCARDSTVVAPMDYWGQGTTVTVSS ?
Response: 275
